- system_under_test: Histamine H1 receptor (Homo sapiens)
- Sequence (P35367 whole entry): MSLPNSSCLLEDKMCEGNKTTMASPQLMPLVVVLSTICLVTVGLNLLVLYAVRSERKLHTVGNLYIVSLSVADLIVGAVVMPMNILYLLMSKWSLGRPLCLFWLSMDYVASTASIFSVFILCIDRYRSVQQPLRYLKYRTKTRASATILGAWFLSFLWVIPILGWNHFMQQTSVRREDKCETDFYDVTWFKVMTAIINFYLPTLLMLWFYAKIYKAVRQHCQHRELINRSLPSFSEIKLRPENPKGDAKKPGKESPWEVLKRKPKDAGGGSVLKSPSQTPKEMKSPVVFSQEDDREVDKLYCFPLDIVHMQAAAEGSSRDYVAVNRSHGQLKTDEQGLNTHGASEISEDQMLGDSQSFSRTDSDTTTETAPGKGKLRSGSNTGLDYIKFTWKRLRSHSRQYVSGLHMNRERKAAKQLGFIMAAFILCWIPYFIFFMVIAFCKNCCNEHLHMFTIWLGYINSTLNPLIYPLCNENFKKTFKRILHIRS
- test_name: Antagonist activity at human recombinant histamine H1 receptor expressed in CHO cells by FLPR assay
pKi: −log10 of the molar value.
Entries and their measured pKi follow.

molecule	pKi
O=C(O)C1CC(N2CCN(C3=Cc4ccccc4Cn4ccnc43)CC2)C1 (single isomer, unassigned; isomer 2)	7.60
COc1cnc2n1Cc1ccccc1C=C2N1CCN(CC(C)(C)C(=O)O)CC1	6.90
C1=C(N2CCNCC2)c2nccn2Cc2ccccc21	9.20
O=C(O)C1CCC(N2CCN(C3=Cc4ccccc4Cn4ccnc43)CC2)CC1 (stereo in doubt; 16)	7.20
O=C(O)CCN1CCN(C2=Cc3ccccc3Cn3ccnc32)CC1	7.30
